PROCEDURE_TEXT: Pharmacokinetics in subjects with varying degrees of renal function (Example 4)
Format: in vivo, human
CONDITION: human, plasma, oral, 10 mg, kidney failure eGFR <15 mL/min; single 10 mg; read-out: AUC0-last, mean (SD)
MEASURED_ENDPOINT: AUC(0-t) (ng·h/mL)
# unit: ng·h/mL | format: bare number

Give AUC(0-t) for the following compound: CCC(=O)N[C@@H]1CCCc2c(-c3ccc4c(c3)CCC(=O)N4C)cncc21 [baxdrostat] 2570

###

PROCEDURE_TEXT: Pharmacokinetics in subjects with varying degrees of renal function (Example 4)
Format: in vivo, human
CONDITION: human, plasma, oral, 10 mg, moderate to severe renal impairment eGFR 15-59 mL/min; single 10 mg; read-out: Cmax, mean (SD)
MEASURED_ENDPOINT: Cmax

Give Cmax for the following molecule: CCC(=O)N[C@@H]1CCCc2c(-c3ccc4c(c3)CCC(=O)N4C)cncc21 110 ng/mL

###

PROCEDURE_TEXT: Single ascending dose study, pharmacokinetics (Example 1)
Assay type: in vivo
CONDITION: human, plasma, oral; single dose, healthy male volunteers
MEASURED_ENDPOINT: half-life
The answer should read as a number with its unit following.

Give half-life for the following compound: CCC(=O)N[C@@H]1CCCc2c(-c3ccc4c(c3)CCC(=O)N4C)cncc21 1740 min

###

PROCEDURE_TEXT: Pharmacokinetics in subjects with varying degrees of renal function (Example 4)
Type: in vivo, human
CONDITION: human, plasma, oral, 10 mg, control eGFR ≥60 mL/min; single 10 mg; read-out: AUC0-last, mean (SD)
MEASURED_ENDPOINT: AUC(0-t)

Give AUC(0-t) for the following compound: CCC(=O)N[C@@H]1CCCc2c(-c3ccc4c(c3)CCC(=O)N4C)cncc21 3380 ng·h/mL

###

PROCEDURE_TEXT: Pharmacokinetics in subjects with varying degrees of renal function (Example 4)
Format: in vivo, human
CONDITION: human, plasma, oral, 10 mg, control eGFR ≥60 mL/min; single 10 mg; read-out: Vz/F, mean (SD)
MEASURED_ENDPOINT: Vd/F

Give Vd/F for the following compound: CCC(=O)N[C@@H]1CCCc2c(-c3ccc4c(c3)CCC(=O)N4C)cncc21 146 L

###

PROCEDURE_TEXT: Pharmacokinetics in subjects with varying degrees of renal function (Example 4)
Assay type: in vivo, human
CONDITION: human, plasma, oral, 10 mg, all renal function groups; after single 10 mg baxdrostat; read-out: Tmax
MEASURED_ENDPOINT: Tmax

Give Tmax for the following compound: CN1C(=O)CCc2cc(-c3cncc4c3CCCC4O)ccc21 (stereo not shown) ~22 h

###

PROCEDURE_TEXT: clinical
CONDITION: human, in vivo, 1000 mg, CLR (urine), Mean
MEASURED_ENDPOINT: CL renal
The answer should read as a number with its unit following.

Give CL renal for the following compound: CN(C)C(=N)N=C(N)N 466 mL/min

###

PROCEDURE_TEXT: Relative bioavailability tablet vs oral solution and food effect (Example 3)
Type: in vivo, human
CONDITION: human, plasma, oral, 5 mg, fasted state
MEASURED_ENDPOINT: Tmax

Give Tmax for the following compound: CCC(=O)N[C@@H]1CCCc2c(-c3ccc4c(c3)CCC(=O)N4C)cncc21 ~3 h

Ref: patent US20260041679A1
